Values from patent US20240116985A1

target: Bcat-Halo (UniProt P35222); test: NanoBRET Abs IC50 in HEK293 cells; competitor TCF4-Luc on Bcat-Halo
Sequence (P35222 whole entry): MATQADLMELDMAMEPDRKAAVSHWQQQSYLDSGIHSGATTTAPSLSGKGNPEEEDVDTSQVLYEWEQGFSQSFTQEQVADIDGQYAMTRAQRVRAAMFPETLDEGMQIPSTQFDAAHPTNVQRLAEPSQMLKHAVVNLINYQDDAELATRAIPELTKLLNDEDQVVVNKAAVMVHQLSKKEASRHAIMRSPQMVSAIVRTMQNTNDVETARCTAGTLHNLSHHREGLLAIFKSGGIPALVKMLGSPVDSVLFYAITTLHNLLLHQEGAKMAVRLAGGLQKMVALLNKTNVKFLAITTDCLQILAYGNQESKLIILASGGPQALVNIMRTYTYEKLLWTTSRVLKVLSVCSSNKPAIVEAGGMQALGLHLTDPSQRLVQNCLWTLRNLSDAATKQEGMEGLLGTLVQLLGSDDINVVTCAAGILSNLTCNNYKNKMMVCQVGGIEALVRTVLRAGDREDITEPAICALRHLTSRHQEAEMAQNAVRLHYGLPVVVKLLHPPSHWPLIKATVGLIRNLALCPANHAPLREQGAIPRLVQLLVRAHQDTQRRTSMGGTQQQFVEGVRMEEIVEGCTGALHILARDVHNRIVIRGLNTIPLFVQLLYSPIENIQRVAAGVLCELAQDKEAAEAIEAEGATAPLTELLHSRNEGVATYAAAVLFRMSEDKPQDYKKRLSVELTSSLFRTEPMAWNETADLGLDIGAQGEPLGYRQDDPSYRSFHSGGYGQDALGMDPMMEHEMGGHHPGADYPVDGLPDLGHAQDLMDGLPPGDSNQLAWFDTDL
pIC50: −log10 of the molar value. Starred links: 1 amine or outer side, 2 acyl side, 3 side chain; linkers in the order of their positions; H or OH if unused. Positions of bridges follow the written chain, without caps; N, C: chain ends. Non-standard residues stand in square brackets, D forms with d. Primed or numbered codes have the meaning given here. PyrS2″ = (S)-3-amino-1-((pent-4-en-1-yloxy)carbonyl)pyrrolidine-3-carboxylic acid (stapling residue), C=CCCCOC(=O)N1CC[C@@](N[*:1])(C(=O)[*:2])C1; B5(4) = 2,2-bis(4-pentenyl)glycine = 2-amino-2-(pent-4-en-1-yl)hept-6-enoic acid (stitching residue), C=CCCCC(CCCC=C)(N[*:1])C(=O)[*:2]; Phe(2-Cl) = N[C@@H](Cc1ccccc1Cl)C(=O)O; Bta = N[C@@H](Cc1csc2ccccc12)C(=O)O; αAllylPro = C=CC[C@@]1(C(=O)O)CCCN1; Cha = N[C@@H](CC1CCCCC1)C(=O)O; hSer = N[C@@H](CCO)C(=O)O
measure_name: pIC50

Previously resolved entries follow.
# binder, measure_name, value_reported
measured = [
    ("Ac-[αAllylPro]D[Cha][B5(4)]DDLAFS[PyrS2″][Phe(2-Cl)][Bta]Q-NH2 (staple 1-4, 4-11) [I-1147]", "pIC50", 4.68),
    ("Ac-[αAllylPro]D[Cha][B5(4)]DDAAFS[PyrS2″][Phe(2-Cl)][Bta]L-NH2 (staple 1-4, 4-11) [I-1138]", "pIC50", 4.70),
]

(1) Ac-[αAllylPro]D[Cha][B5(4)]DDAAFS[PyrS2″][Phe(2-Cl)][Bta][hSer]-NH2 (staple 1-4, 4-11) [I-1137]
(2) Ac-[αAllylPro]D[Cha][B5(4)]DDALFT[PyrS2″][Phe(2-Cl)][Bta]S-NH2 (staple 1-4, 4-11) [I-1151]
From the items above, decide which of 1 and 2 has the lower pIC50 reading. Refer to your chosen item by its label in the answer. 2
(2: 4.60, 1: 4.92)
